From: ChEMBL document CHEMBL1148410

# Tested on: CCRF-CEM
# experimentalProtocol: Concentration required to reduce proliferation of CD4+ human acuteT-lymphoblastic leukemia (CCRF-CEM) cell line by 50% as determined by the MTT method
# Type: functional, cell-based
measuredProperty: IC50 (nM)
The figure you give is taken to be in nM; do not add the unit.

CCOC(=O)C1=CC2C(=O)c3cccnc3C(=O)C2C(c2ccc(C)cc2)=N1 (stereo unspecified)    1000
CCOC(=O)C1=CC2C(=O)c3cccnc3C(=O)C2C(c2ccc(N(C)C)cc2)=N1 (stereo unspecified)    2300
CCOC(=O)C1=CC2C(=O)c3ncccc3C(=O)C2C(c2ccc(N(C)C)cc2)=N1 (stereo unspecified)    1200
CCOC(=O)C1=CC2C(=O)c3ncccc3C(=O)C2C(c2ccccc2)=N1 (stereo unspecified)    200
CCOC(=O)C1=CC2C(=O)c3ncccc3C(=O)C2C(c2ccc(OC)cc2)=N1 (stereo unspecified)    100

What measured IC50 is associated with CCOC(=O)C1=CC2C(=O)c3cccnc3C(=O)C2C(c2ccc([N+](=O)[O-])cc2)=N1 (stereo unspecified) on CCRF-CEM? 230

What measured IC50 is associated with CCOC(=O)C1=CC2C(=O)c3ncccc3C(=O)C2C(c2ccc(Cl)cc2)=N1 (stereo unspecified) on CCRF-CEM? 150

What measured IC50 is associated with CCOC(=O)C1(N)CSC2=C1C(=O)c1ncccc1C2=O (stereo unspecified) on CCRF-CEM? 70

What measured IC50 is associated with CCOC(=O)C1=CC2C(=O)c3ncccc3C(=O)C2C(c2ccc(C)cc2)=N1 (stereo unspecified) on CCRF-CEM? 20

What measured IC50 is associated with CCOC(=O)C1=CC2C(=O)c3cccnc3C(=O)C2C(c2ccc(Cl)cc2)=N1 (stereo unspecified) on CCRF-CEM? 800

What measured IC50 is associated with CCOC(=O)C1=CC2C(=O)c3cccnc3C(=O)C2C(c2ccc(OC)cc2)=N1 (stereo unspecified) on CCRF-CEM? 1500

What measured IC50 is associated with CCOC(=O)C1(N)CSC2=C1C(=O)c1cccnc1C2=O (stereo unspecified) on CCRF-CEM? 2000

====

# System: SK-MEL-28
# experimentalProtocol: Concentration required to reduce proliferation of human melanoma (SKMEL-28) cell line by 50% as determined by the MTT method
# Format: functional, cell-based
Recorded IC50, one value per entry.
The figure you give is taken to be in nM; do not add the unit.

Please review the following examples before continuing.
CCOC(=O)C1=CC2C(=O)c3cccnc3C(=O)C2C(c2ccc(N(C)C)cc2)=N1 (stereo not given)    1900
CCOC(=O)C1=CC2C(=O)c3ncccc3C(=O)C2C(c2ccc(Br)cc2)=N1 (stereo not given)    200
CCOC(=O)C1(N)CSC2=C1C(=O)c1cccnc1C2=O (stereo not given)    1100
CCOC(=O)C1=CC2C(=O)c3cccnc3C(=O)C2C(c2ccc(C)cc2)=N1 (stereo not given)    1300

Shifting focus to the compound that follows.
Recorded IC50 for CCOC(=O)C1=CC2C(=O)c3cccnc3C(=O)C2C(c2ccc(Cl)cc2)=N1 (stereo not given) , please? 800

====

Recorded pIC50, one value per entry.
# System: CCRF-CEM
# experimentalProtocol: Concentration required to reduce proliferation of CD4+ human acuteT-lymphoblastic leukemia (CCRF-CEM) cell line by 50% as determined by the MTT method
# Format: functional, cell-based
Keep in mind that pIC50 stands for -log10 of concentration in molar terms.

CCOC(=O)C1=CC2C(=O)c3ncccc3C(=O)C2C(c2ccc([N+](=O)[O-])cc2)=N1 (centres undefined)    7.30
CCOC(=O)C1=CC2C(=O)c3cccnc3C(=O)C2C(c2ccc(Br)cc2)=N1 (centres undefined)    5.89
CCOC(=O)C1=CC2C(=O)c3ncccc3C(=O)C2C(c2ccc(Br)cc2)=N1 (centres undefined)    6.70

Shifting focus to the molecule that follows.
Recorded pIC50 for CCOC(=O)C1=CC2C(=O)c3cccnc3C(=O)C2C(c2ccccc2)=N1 (centres undefined) , please? 6.15
